- protocol details: Inhibition of Influenza virus A/X-31 RNA dependent RNA polymerase using ApG primer [adenyl (3'-5') guanosine] and [8-3H]GTP after 1 hr by filter-based assay
- Set-up: species or system Influenza A virus (A/X-31(H3N2))
pIC50: −log10 of the molar value.
Reported pIC50 values for the following compounds.

compound	pIC50
NC(=O)c1nc(F)cn([C@@H]2O[C@H](COP(=O)(O)OP(=O)(O)OP(=O)(O)O)[C@@H](O)[C@H]2O)c1=O	5.57
Nc1nc2c(ncn2[C@@H]2O[C@H](COP(=O)(O)OP(=O)(O)OP(=O)(O)O)C[C@H]2O)c(=O)[nH]1	4.80
Nc1nc2c(ncn2[C@@H]2O[C@H](COP(=O)(O)OP(=O)(O)OP(=O)(O)O)[C@@H](O)[C@H]2F)c(=O)[nH]1	5.60
